Origin of the recorded values: patent US20240246918A1

System: COLO 205 colorectal tumor cells
experimentSummary: Tumor cell viability inhibition assay (CellTiter-Glo 2.0, 72 hours)
Type: cell-based
conditionLabel: Homo sapiens, COLO 205, 72 h, COLO 205 cell viability
pIC50: −log10 of the molar value.
readoutKind: pIC50

## Input I'd like to know its pIC50. The compound in question is Cc1cc(-c2cc(Cl)ccc2OCCn2c(C)nc3c(c2=O)CC(N(C)Cc2ccccn2)CC3)c2scc(C(=O)O)c2n1 (stereo not shown)
## Output > 5.30

====

System: COLO 205 colorectal tumor cells
experimentSummary: Tumor cell viability inhibition assay (CellTiter-Glo 2.0, 72 hours)
Assay type: cell-based
conditionLabel: COLO 205 cell viability
pIC50: −log10 of the molar value.
Below is a list of entries, each paired with its recorded pIC50 value.

Cc1nc2c(c(=O)n1CC#Cc1ccc(Cl)cc1-c1ccnc3c(C(=O)NS(C)(=O)=O)csc13)CC(N1CC(F)(F)C1)CC2 (single isomer, unassigned) [Compound 332]: 4.70 to 5.30
COC1CCN(C2CCc3nc(C)n(CC#Cc4ccc(Cl)cc4-c4ccnc5c(C(=O)O)csc45)c(=O)c3C2)CC1 (single isomer, unassigned) [Compound 410]: 4.70 to 5.30
Cc1cc(-c2cc(Cl)ccc2OCCn2c(C)nc3c(c2=O)CC(N2CCC4(CN(CC(F)(F)F)CC(F)(F)C4)C2)CC3)c2scc(C(=O)O)c2n1 (single isomer, unassigned) [Compound 512]: > 5.30

Turning to the following molecule.
## Input I'd like to know its pIC50. The molecule in question is Cc1cc(-c2cc(Cl)ccc2OCCn2c(C)nc3c(c2=O)CC(N2CC4(CCC(F)(F)CC4)C2)CC3)c2scc(C(=O)NS(C)(=O)=O)c2n1 (single isomer, unassigned) [Compound 364]
## Output > 5.30

====

Below is a list of entries, each paired with its recorded pIC50 value.
Test system: COLO 205 colorectal tumor cells
experimentSummary: Tumor cell viability inhibition assay (CellTiter-Glo 2.0, 72 hours)
Format: cell-based
conditionLabel: Homo sapiens, COLO 205, 72 h, COLO 205 cell viability
pIC50: −log10 of the molar value.

## Input I'd like to know its pIC50. The compound in question is COc1cc(CNC2CCc3nc(C)n(CCOc4ccc(Cl)cc4-c4cc(C)nc5c(C(=O)O)csc45)c(=O)c3C2)ccn1 (stereo not drawn)
## Output > 5.30

====

System: COLO 205 colorectal tumor cells
experimentSummary: Tumor cell viability inhibition assay (CellTiter-Glo 2.0, 72 hours)
Format: cell-based
conditionLabel: Homo sapiens, COLO 205, 72 h, COLO 205 cell viability
readoutKind: IC50

Examples from the recorded data:
Cc1cc(-c2cc(Cl)ccc2OCCn2c(C)nc3c(c2=O)C[C@H](N2CCC(c4noc5ccc(F)cc45)CC2)CC3)c2scc(C(=O)O)c2n1 (single isomer, unassigned): < 5 µM
Cc1cc(-c2cc(Cl)ccc2OCCn2c(C)nc3c(c2=O)CC(N(C)Cc2cc[nH]c(=O)c2)CC3)c2scc(C(=O)O)c2n1 (single isomer, unassigned): > 20 µM
Cc1cc(-c2cc(Cl)ccc2OCCn2c(C)nc3c(c2=O)CC(N(C)Cc2ccncc2F)CC3)c2scc(C(=O)O)c2n1 (centres unmarked): < 5 µM
Cc1cc(-c2cc(Cl)ccc2OCCn2c(C)nc3c(c2=O)C[C@H](N2CCC[C@@H](OC(F)(F)F)C2)CC3)c2scc(C(=O)O)c2n1 (single isomer, unassigned): < 5 µM
Cc1cc(-c2cc(Cl)ccc2OCCn2c(C)nc3c(c2=O)CC(N2CC(F)(F)C2)CC3)c2scc(C(=O)NS(C)(=O)=O)c2n1 (centres unmarked): 5 to 20 µM

## Input I'd like to know its IC50. The compound in question is Cc1nc2c(c(=O)n1CC#Cc1ccc(Cl)cc1-c1ccnc3c(C(=O)O)csc13)C[C@@H](N1CCC[C@@]3(C1)CC3(F)F)CC2 (single isomer, unassigned)
## Output < 5 µM

## Input Also, Cc1cc(-c2cc(Cl)ccc2OCCn2c(C)nc3c(c2=O)CC(N2CCC[C@H](F)C2)CC3)c2scc(C(=O)NS(C)(=O)=O)c2n1 (single isomer, unassigned) please.
## Output < 5 µM

====

Here's a batch of compounds along with measured IC50 for human eIF4E protein (Homo sapiens, UniProt P06730).

Examples from the recorded data:
Cc1cc(-c2cc(Cl)ccc2OCCn2c(C)nc3c(c2=O)C[C@H](N2CCC(c4cc(F)cc(F)c4F)CC2)CC3)c2scc(C(=O)O)c2n1 (single isomer, unassigned): < 100 nM
Cc1cc(-c2cc(Cl)ccc2OCCn2c(C)nc3c(c2=O)CC(N2CC4(CCCNC4)C2)CC3)c2scc(C(=O)O)c2n1 (single isomer, unassigned): < 100 nM
Cc1cc(-c2cc(Cl)ccc2OCCn2c(C)nc3c(c2=O)CC(N(C)Cc2cc[nH]c(=O)c2)CC3)c2scc(C(=O)O)c2n1 (single isomer, unassigned): < 100 nM
COC1CCc2nc(C)n(CCOc3ccc(Cl)cc3-c3cc(C)nc4c(C(=O)O)csc34)c(=O)c2C1 (centres unmarked) [Compound 7]: 100 to 500 nM

## Input I'd like to know its IC50. The compound in question is Cc1cc(-c2cc(Cl)ccc2OCCn2c(C)nc3c(c2=O)CC(N2CCCCC2)CC3)c2scc(C(=O)O)c2n1 (single isomer, unassigned) [Compound 250]
## Output < 100 nM

====

Tested on: COLO 205 colorectal tumor cells
experimentSummary: Tumor cell viability inhibition assay (CellTiter-Glo 2.0, 72 hours)
Format: cell-based
conditionLabel: Homo sapiens, COLO 205, 72 h, COLO 205 cell viability
readoutKind: IC50

Examples from the recorded data:
Cc1nc2c(c(=O)n1CC#Cc1ccc(Cl)cc1-c1ccnc3c(C(=O)NS(C)(=O)=O)csc13)CC(N(C)Cc1ccncc1)CC2 (single isomer, unassigned): < 5 µM
COC1[C@@H]2CC[C@H]1CN(C1CCc3nc(C)n(CCOc4ccc(Cl)cc4-c4cc(C)nc5c(C(=O)O)csc45)c(=O)c3C1)C2 (stereo partly drawn): < 5 µM
Cc1cc(-c2cc(Cl)ccc2OCCn2c(C)nc3c(c2=O)CC(CN)(N2CCC(OC(F)(F)F)CC2)CC3)c2scc(C(=O)O)c2n1 (single isomer, unassigned): > 20 µM
Cc1cc(-c2cc(Cl)ccc2OCCn2c(C)nc3c(c2=O)CC(N2CC(F)(F)C(F)(F)C2)CC3)c2scc(C(=O)O)c2n1 (stereo not drawn): 5 to 20 µM
Cc1cc(-c2cc(Cl)ccc2OCCn2c(C)nc3c(c2=O)C[C@H](N2CCC(OC(F)F)CC2)CC3)c2scc(C(=O)O)c2n1 (single isomer, unassigned): < 5 µM

## Input Given the entry Cc1cc(-c2cc(Cl)ccc2OCCn2c(C)nc3c(c2=O)C[C@H](N2CCO[C@H](CC(F)(F)F)C2)CC3)c2scc(C(=O)O)c2n1 (single isomer, unassigned) , what IC50 was observed with COLO 205 colorectal tumor cells?
## Output < 5 µM

## Input Also, Cc1sc2c(-c3cc(Cl)ccc3OCCn3c(C)nc4c(c3=O)CC(N(C)C3CC3)CC4)cn(C)c(=O)c2c1C(=O)O (single isomer, unassigned) please.
## Output > 20 µM

## Input Also, Cc1cc(-c2cc(Cl)ccc2OCCn2c(C)nc3c(c2=O)C[C@H](N2CCC(c4ncccc4F)CC2)CC3)c2scc(C(=O)O)c2n1 (single isomer, unassigned) please.
## Output < 5 µM

## Input Also, Cc1cc(-c2cc(Cl)ccc2OCCn2c(C)nc3c(c2=O)C[C@H](N2CCCC[C@@H]2c2cccc(F)c2)CC32CC2)c2scc(C(=O)O)c2n1 (single isomer, unassigned) please.
## Output > 20 µM

====

Here's a batch of compounds along with measured pIC50 for human eIF4E protein (Homo sapiens, UniProt P06730).
pIC50: −log10 of the molar value.

Examples from the recorded data:
CO[C@@H]1CCN([C@]2(C)CCc3nc(C)n(CCOc4ccc(Cl)cc4-c4cc(C)nc5c(C(=O)O)csc45)c(=O)c3C2)CC1(C)C (single isomer, unassigned): 6.30 to 7.00
Cc1cc(-c2cc(Cl)ccc2OCCn2c(C)nc3c(c2=O)CC(N(C)CC(F)F)CC3)c2scc(C(=O)NS(C)(=O)=O)c2n1 (centres unmarked): > 7.00
Cc1cc(-c2cc(Cl)ccc2OCCn2c(C)nc3c(c2=O)C[C@H](N2CCC(CC(F)(F)F)CC2)CC3)c2scc(C(=O)O)c2n1 (single isomer, unassigned): > 7.00
Cc1cc(-c2cc(Cl)ccc2OCCn2c(C)nc3c(c2=O)C[C@H](N2CC[C@H](F)C2)CC3)c2scc(C(=O)NS(C)(=O)=O)c2n1 (single isomer, unassigned): > 7.00
Cc1cc(-c2cc(Cl)ccc2OCCn2c(C)nc3c(c2=O)CC(N2CCC(C(F)(F)F)CC2)CC3)c2scc(C(=O)NS(C)(=O)=O)c2n1 (single isomer, unassigned) [Compound 433]: > 7.00

## Input I'd like to know its pIC50. The compound in question is Cc1cc(-c2cc(Cl)ccc2OCCn2c(C)nc3c(c2=O)CC(N2CCC(CC(F)(F)F)CC2)CC3(C)C)c2scc(C(=O)O)c2n1 (single isomer, unassigned)
## Output > 7.00

## Input Also, Cc1cc(-c2cc(Cl)ccc2OCCn2c(C)nc3c(c2=O)C[C@H](N2CCC(C(F)(F)F)CC2)CC32CC2)c2scc(C(=O)O)c2n1 (single isomer, unassigned) please.
## Output > 7.00

## Input Also, Cc1cc(-c2cc(Cl)c(=O)[nH]c2OCCn2c(C)nc3c(c2=O)CC(N(C)C2CC2)CC3)c2scc(C(=O)O)c2n1 (single isomer, unassigned) please.
## Output 5.30 to 6.30

## Input Also, COC1CCN(C2(C)CCc3nc(C)n(CCOc4ccc(Cl)cc4-c4cc(C)nc5c(C(=O)O)csc45)c(=O)c3C2)CC1(C)C (single isomer, unassigned) please.
## Output 6.30 to 7.00

## Input Also, Cc1nc2c(c(=O)n1CC#Cc1ccc(Cl)cc1-c1ccnc3c(C(=O)O)csc13)CC(N(C)C)CC2 (centres unmarked) [Compound 350] please.
## Output 5.30 to 6.30
